target: T1, human MUC1 on cells (DA3-TM transfectants and human cancer cell lines SKOV3, COLO357, HT29 and others) (human, UniProt P15941 24-1255); experiment: flow cytometry, dose-dependent binding on MUC1 positive DA3-TM cells
T1 construct: also called MUC1-SEA; surface MUC1
T1 sequence (P15941 24-1255 limits assumed): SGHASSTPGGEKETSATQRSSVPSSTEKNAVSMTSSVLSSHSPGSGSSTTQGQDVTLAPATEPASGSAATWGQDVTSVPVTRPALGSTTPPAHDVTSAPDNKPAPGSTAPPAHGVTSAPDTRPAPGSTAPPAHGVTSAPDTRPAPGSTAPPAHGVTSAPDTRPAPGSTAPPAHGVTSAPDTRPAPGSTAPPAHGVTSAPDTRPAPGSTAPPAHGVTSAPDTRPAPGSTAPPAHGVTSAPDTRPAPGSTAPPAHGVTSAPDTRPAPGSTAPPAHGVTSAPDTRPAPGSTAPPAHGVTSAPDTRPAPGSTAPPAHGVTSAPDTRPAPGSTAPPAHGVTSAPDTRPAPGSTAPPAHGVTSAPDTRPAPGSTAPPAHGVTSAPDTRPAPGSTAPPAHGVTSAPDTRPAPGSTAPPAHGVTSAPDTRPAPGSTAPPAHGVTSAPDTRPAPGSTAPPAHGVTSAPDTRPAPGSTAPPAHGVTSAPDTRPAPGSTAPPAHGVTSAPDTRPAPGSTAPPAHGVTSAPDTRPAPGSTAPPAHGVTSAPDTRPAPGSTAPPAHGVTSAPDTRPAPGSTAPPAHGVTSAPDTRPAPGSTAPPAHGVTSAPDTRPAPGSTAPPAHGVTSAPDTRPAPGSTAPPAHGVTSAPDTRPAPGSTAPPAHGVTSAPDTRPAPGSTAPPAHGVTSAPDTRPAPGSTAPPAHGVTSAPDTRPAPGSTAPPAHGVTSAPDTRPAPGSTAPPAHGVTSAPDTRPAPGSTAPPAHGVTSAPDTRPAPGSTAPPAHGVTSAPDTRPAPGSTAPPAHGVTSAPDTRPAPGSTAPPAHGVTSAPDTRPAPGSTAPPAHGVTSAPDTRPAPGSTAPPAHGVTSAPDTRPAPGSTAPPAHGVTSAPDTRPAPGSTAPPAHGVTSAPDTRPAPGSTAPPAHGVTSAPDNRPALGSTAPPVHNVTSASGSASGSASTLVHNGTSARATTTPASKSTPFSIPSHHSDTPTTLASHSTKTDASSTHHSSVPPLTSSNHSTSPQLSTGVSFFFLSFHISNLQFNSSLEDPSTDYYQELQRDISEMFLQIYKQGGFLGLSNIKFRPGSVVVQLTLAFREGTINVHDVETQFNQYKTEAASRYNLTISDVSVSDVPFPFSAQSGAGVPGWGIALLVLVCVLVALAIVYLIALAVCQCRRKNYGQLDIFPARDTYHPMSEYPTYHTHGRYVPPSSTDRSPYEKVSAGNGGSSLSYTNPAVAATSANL
Record form. Attribute: pKd. Fill in for each entry.
One number for each entry, as −log10 of the molar value.

binder | measuredAttribute | assayValue
HM4 LM3 variant of humanized anti-MUC1 antibody SP66 (antibody, V domains shown, Humanized IgG expressed in CHO cells; only variable domains tied to the variant) VH: EIQLVQSGAEVKKPGSSVKVSCKVTGHSITRGSSWHWMRQAPGQGLEWIGYIHYGGGTSYNPSLKSRATLTRDTSTNTFYMELSSLRSEDTAFYFCARYSYDITYRWFFDVWGQGTLVTVSS VL: DIQMTQSPSTLSASVGDRVTITCRASQNIGTSIHWYQQKPGKAPKLLIKYASESISGVPSRFSGSGSGTEFTLTISSLQPDDFATYYCQQNNNWPLTFGQGTKVEVK | pKd | 8.82

Hi, could you look up pKd for each item in my list?
1. HM2 LM1 variant of humanized anti-MUC1 antibody SP66 (antibody, V domains shown, Humanized IgG expressed in CHO cells; only variable domains tied to the variant) VH: EIQLVQSGAEVKKPGSSVKVSCKVTGHSITRGSSWHWMRQAPGQGLEWIGYIHYGGGTSYNPSLKSRITITRDTSTNTAYMELSSLRSEDTAFYFCARYSYDITYRWFFDVWGQGTLVTVSS VL: DIQMTQSPSTLSASVGDRVTITCRASQNIGTSIHWFQQKPGKAPKLLIKRASESISGVPSRFSGSGSGTEFTLTISSLQPDDFATYYCQQNNNWPLTFGQGTKVEVK
2. humanized IgG1 anti-MUC1-SEA mAb (HM5 LM4) (antibody, V domains shown, also called Humanized anti-MUC1 SEA IgG1; humanized IgG anti-MUC1-SEA mAb) VH: EIQLVQSGAEVKKPGSSVKVSCKVTGHSITRGSSWHWMRQAPGQGLEWIGYIHYGGGTSYNPSLKSRITITRDTSTNTFYMELSSLRSEDTAFYFCARYSYDITYRWFFDVWGQGTLVTVSS VL: DIQMTQSPSTLSASVGDRVTITCRASQNIGTSIHWYQQKPGKAPKLLIKYASESISGVPSRFSGSGSGTEFTLTISSLQPDDFATYYCQQNNNWPLTFGQGTKVEIKR
3. HM3 LM2 variant of humanized anti-MUC1 antibody SP66 (antibody, V domains shown, Humanized IgG expressed in CHO cells; only variable domains tied to the variant) VH: EIQLVQSGAEVKKPGSSVKVSCKVTGHSITRGSSWHWMRQAPGQGLEWIGYIHYGGGTSYNPSLKSRATLTRDTSTNTAYMELSSLRSEDTAFYFCARYSYDITYRWFFDVWGQGTLVTVSS VL: DIQMTQSPSTLSASVGDRVTITCRASQNIGTSIHWYQQKPGKAPKLLIKRASESISGVPSRFSGSGSGTEFTLTISSLQPDDFATYYCQQNNNWPLTFGQGTKVEVK

Result:
1. 7.84
2. 9.00
3. 8.43
